test: Volume of distribution at steady state in rat at 2 mg/kg, iv or 6 mg/kg, po; type: ADME, organism-based; conditions: in vivo, read-out: Vdss
EXPERIMENTAL ENDPOINT: Vd (L/kg)
Value expressed in L/kg; do not type the unit.

Reported Vd of "[2H]C([2H])([2H])Oc1ncc(-c2cc3c(C(=O)NC)c(-c4ccc(F)cc4)oc3nc2CCC(F)(F)F)cc1C(=O)NC(c1ncon1)(C([2H])([2H])[2H])C([2H])([2H])[2H]" : 11

* * *

assay: AUC in dog at 3 mg/kg, po; assay type: ADME, organism-based, Canis lupus familiaris; details: in vivo
EXPERIMENTAL ENDPOINT: AUC (µM·h)
Value expressed in µM·h; do not type the unit.

Reported AUC of "[2H]C([2H])([2H])Oc1ncc(-c2cc3c(C(=O)NC)c(-c4ccc(F)cc4)oc3nc2CCC(F)(F)F)cc1C(=O)NC(c1ncon1)(C([2H])([2H])[2H])C([2H])([2H])[2H]" : 125
